experiment: LNP size and polydispersity index (PDI) by dynamic light scattering (DLS)
Format: physicochemical
condition parameters: Table 11; LNP with hEPO mRNA, Lipid:DSPC:Cholesterol:DMG-PEG2k 50:10:38.5:1.5 mol % (ALC-0315: 46.3:9.4:42.7:1.6), N:P ratio 6; HEPES/sodium chloride/sucrose buffer, stored at −80C
recorded metric: Size (nm)
Answer in nm, number only, no unit symbol.

molecule: CCCCCCCCC(CCCCCC)C(=O)OCCN(CCOC(=O)C(CCCCCC)CCCCCCCC)C(=O)C(C)CCN(C)CCO.Cl (stereo not shown) [Compound 987p]
measured number: 74.2

Query: Looking for the measured Size (nm) of CCCCCCCCC(CCCCCC)C(=O)OCCN(CCOC(=O)C(CCCCCC)CCCCCCCC)C(=O)C(C)CCN(CCCC)CCCC.Cl (stereo not shown) [Compound 987o] , can you help?
Response: 57.4

Query: Looking for the measured Size (nm) of CCCCCCCCC(CCCCCC)C(=O)OCCN(CCOC(=O)C(CCCCCC)CCCCCCCC)C(=O)C(C)CCNCCC.Cl (stereo not shown) [Compound 987h] , can you help?
Response: 69.1

Query: Looking for the measured Size (nm) of CCCCCCCCC(CCCCCC)C(=O)OCCN(CCOC(=O)C(CCCCCC)CCCCCCCC)C(=O)C(C)CCN1CCCC1.Cl (stereo not shown) [Compound 987l] , can you help?
Response: 76.4

---

experiment: LNP size and polydispersity index (PDI) by dynamic light scattering (DLS)
Type: physicochemical
condition parameters: Table 1; LNP lipid:DSPC:Cholesterol:DMG-PEG2k 50:10:38.5:1.5 mol %; hEPO mRNA; N:P 6
recorded metric: PDI
Respond numerically, and do not add a unit to the figure.

Query: Looking for the measured PDI of CCCCCCCC/C=C\CCCCCCCC(=O)OCCN(CCOC(=O)CCCCCCC/C=C\CCCCCCCC)C(=O)C(N)Cc1ccccc1 (centres unmarked) [Compound 113] , can you help?
Response: 0.126

---

experiment: LNP size and polydispersity index (PDI) by dynamic light scattering (DLS)
Format: physicochemical
condition parameters: Table 5; LNP 50:10:38.5:1.5 mol %; hEPO mRNA; N:P 6
recorded metric: PDI
Respond numerically, and do not add a unit to the figure.

compound: CCCCCCCCCCCCC(CC)C(=O)OCCN(CCOC(=O)C(CC)CCCCCCCCCCCC)C(=O)C(C)N (stereo not shown) [Compound 613]
measured number: 0.236
--
compound: CCCCCCCCC(CC)C(=O)OCCN(CCOC(=O)C(CC)CCCCCCCC)C(=O)CN (stereo not shown) [Compound 603]
measured number: 0.213
--
compound: CCCCCCCCCCC(CCCC)C(=O)OCCN(CCOC(=O)C(CCCC)CCCCCCCCCC)C(=O)C(C)N (stereo not shown) [Compound 612]
measured number: 0.403

Let us move to another entry and its PDI.
Query: Looking for the measured PDI of CCCCCCCC(CCCCCCC)C(=O)OCCN(CCOC(=O)C(CCCCCCC)CCCCCCC)C(=O)CN [Compound 604] , can you help?
Response: 0.102

---

Reported Encapsulation Efficiency % values for the following molecules.
experiment: Encapsulation efficiency (EE %) by fluorescence based Ribogreen assay
Type: physicochemical
condition parameters: Table 5; LNP 60:0:38.5:1.5 mol %; hEPO mRNA; N:P 6
Answer in %, number only, no unit symbol.

Here are 2 molecules together with their reported answers.
molecule: CCCCCCCC(CCCCCCC)C(=O)OCCN(CCOC(=O)C(CCCCCCC)CCCCCCC)C(=O)CN
output unit: %
Encapsulation Efficiency %: 98
//
molecule: CCCCCCCC(CCCCCCC)C(=O)OCCN(CCOC(=O)C(CCCCCCC)CCCCCCC)C(=O)C(C)N (centres unmarked)
output unit: %
Encapsulation Efficiency %: 98.4

Query: Looking for the measured Encapsulation Efficiency % of CCCCCCCC(CCCCCCC)C(=O)OCCN(CCOC(=O)C(CCCCCCC)CCCCCCC)C(=O)C(N)Cc1ccccc1 (centres unmarked) , can you help?
Response: 92.8

Query: Looking for the measured Encapsulation Efficiency % of CCCCCCCCC(CCCCCC)C(=O)OCCN(CCOC(=O)C(CCCCCC)CCCCCCCC)C(=O)CNCCO (centres unmarked) , can you help?
Response: 99.5

Query: Looking for the measured Encapsulation Efficiency % of CCCCCCCCC(CCCCCC)C(=O)OCCN(CCOC(=O)C(CCCCCC)CCCCCCCC)C(=O)CN (centres unmarked) , can you help?
Response: 99.3

---

experiment: LNP Zeta potential measured using a Zetasizer (Malvern)
Format: physicochemical
condition parameters: Table 9; LNP 50:10:38.5:1.5 mol %; hEPO mRNA; N:P 6
recorded metric: Zeta potential (mV)
Answer in mV, number only, no unit symbol.

compound: CCCCCCCC(CCCCCCC)C(=O)OCCN(CCOC(=O)C(CCCCCCC)CCCCCCC)C(=O)CN(C)C.Cl [Compound 962]
Zeta potential / mV: −30.33
--
compound: CCCCCCCCC(CCCCCC)C(=O)OCCN(CCOC(=O)C(CCCCCC)CCCCCCCC)C(=O)CN1CCOCC1.Cl (stereo not shown) [Compound 960e]
Zeta potential / mV: −45.58
--
compound: CCCCCCCCC(CCCCCC)C(=O)OCCN(CCOC(=O)C(CCCCCC)CCCCCCCC)C(=O)CN(C)CC.Cl (stereo not shown) [Compound 966]
Zeta potential / mV: −36.65

Query: Looking for the measured Zeta potential of CCCCCCCCC(CCCCCC)C(=O)OCCN(CCOC(=O)C(CCCCCC)CCCCCCCC)C(=O)CNCCC.Cl (stereo not shown) [Compound 968] , can you help?
Response: −13.15

---

experiment: Encapsulation efficiency (EE %) by fluorescence based Ribogreen assay
Assay type: physicochemical
condition parameters: Table 9; LNP 50:10:38.5:1.5 mol %; hEPO mRNA; N:P 6
recorded metric: Encapsulation Efficiency % (%)
Answer in %, number only, no unit symbol.

Here are 5 compounds together with their reported answers.
compound: CCCCCCCCC(CCCCCC)C(=O)OCCN(CCOC(=O)C(CCCCCC)CCCCCCCC)C(=O)CNCCC.Cl (centres unmarked)
output unit: %
Encapsulation Efficiency %: 98.2
//
compound: CCCCCCCCC(CCCCCC)C(=O)OCCN(CCOC(=O)C(CCCCCC)CCCCCCCC)C(=O)CN(C)CCC.Cl (centres unmarked)
output unit: %
Encapsulation Efficiency %: 99.4
//
compound: CCCCCCCCC(CCCCCC)C(=O)OCCN(CCOC(=O)C(CCCCCC)CCCCCCCC)C(=O)CN1CCCCC1.Cl (centres unmarked) [Compound 960d]
output unit: %
Encapsulation Efficiency %: 99.5
//
compound: CCCCCCCCC(CCCCCC)C(=O)OCCN(CCOC(=O)C(CCCCCC)CCCCCCCC)C(=O)CN(CC)CCC.Cl (single isomer, unassigned) [Compound 960b]
output unit: %
Encapsulation Efficiency %: 99.8
//
compound: CCCCCCCCC(CCCCCC)C(=O)OCCN(CCOC(=O)C(CCCCCC)CCCCCCCC)C(=O)CN1CCOCC1.Cl (centres unmarked) [Compound 960e]
output unit: %
Encapsulation Efficiency %: 99.4

Query: Looking for the measured Encapsulation Efficiency % of CCCCCCCCC(CCCCCC)C(=O)OCCN(CCOC(=O)C(CCCCCC)CCCCCCCC)C(=O)CNC.Cl (centres unmarked) , can you help?
Response: 99.3

Query: Looking for the measured Encapsulation Efficiency % of CCCCCCCCC(CCCCCC)C(=O)OCCN(CCOC(=O)C(CCCCCC)CCCCCCCC)C(=O)CN(C)CCO.Cl (centres unmarked) [Compound 960g] , can you help?
Response: 99

Query: Looking for the measured Encapsulation Efficiency % of CCCCCCCCC(CCCCCC)C(=O)OCCN(CCOC(=O)C(CCCCCC)CCCCCCCC)C(=O)CN(C)CC.Cl (centres unmarked) , can you help?
Response: 97.8

Query: Looking for the measured Encapsulation Efficiency % of CCCCCCCCCC(CCCCCCCCC)C(=O)OCCN(CCOC(=O)C(CCCCCCCCC)CCCCCCCCC)C(=O)CN(C)C.Cl , can you help?
Response: 99.2

Query: Looking for the measured Encapsulation Efficiency % of CCCCCCCCC(CCCCCC)C(=O)OCCN(CCOC(=O)C(CCCCCC)CCCCCCCC)C(=O)CN1CCCC1.Cl (centres unmarked) [Compound 960c] , can you help?
Response: 99.7

Query: Looking for the measured Encapsulation Efficiency % of CCCCCCCCC(CCCCCC)C(=O)OCCN(CCOC(=O)C(CCCCCC)CCCCCCCC)C(=O)CNCC.Cl (centres unmarked) , can you help?
Response: 98.6

---

Reported Encapsulation Efficiency % values for the following molecules.
experiment: Encapsulation efficiency (EE %) by fluorescence based Ribogreen assay
Assay type: physicochemical
condition parameters: Table 5; LNP 50:10:38.5:1.5 mol %; hEPO mRNA; N:P 6
Answer in %, number only, no unit symbol.

Here are 5 molecules together with their reported answers.
molecule: CCCCCC(CCCCC)C(=O)OCCN(CCOC(=O)C(CCCCC)CCCCC)C(=O)C(N)Cc1ccccc1 (centres unmarked)
Encapsulation Efficiency % / %: 98.7

molecule: CCCCCC(CCCCC)C(=O)OCCN(CCOC(=O)C(CCCCC)CCCCC)C(=O)C(C)N (centres unmarked)
Encapsulation Efficiency % / %: 97.7

molecule: CCCCCCCCCCC(CCCC)C(=O)OCCN(CCOC(=O)C(CCCC)CCCCCCCCCC)C(=O)C(N)Cc1ccccc1 (centres unmarked)
Encapsulation Efficiency % / %: 98.1

molecule: CCCCCCCCCC(CCCCCCCCC)C(=O)OCCN(CCOC(=O)C(CCCCCCCCC)CCCCCCCCC)C(=O)C(N)Cc1ccccc1 (centres unmarked)
Encapsulation Efficiency % / %: 98.9

molecule: CCCCCCC(CCCC)C(=O)OCCN(CCOC(=O)C(CCCC)CCCCCC)C(=O)CN (centres unmarked)
Encapsulation Efficiency % / %: 99.1

Query: Looking for the measured Encapsulation Efficiency % of CCCCCCCCC(CCCCCC)C(=O)OCCN(CCOC(=O)C(CCCCCC)CCCCCCCC)C(=O)CN (centres unmarked) , can you help?
Response: 99.6

Query: Looking for the measured Encapsulation Efficiency % of CCCCCCCCCC(CCCCCCCCC)C(=O)OCCN(CCOC(=O)C(CCCCCCCCC)CCCCCCCCC)C(=O)CN , can you help?
Response: 99.7

Query: Looking for the measured Encapsulation Efficiency % of CCCCCCCCCCC(CCCC)C(=O)OCCN(CCOC(=O)C(CCCC)CCCCCCCCCC)C(=O)C(C)N (centres unmarked) , can you help?
Response: 99.8

Query: Looking for the measured Encapsulation Efficiency % of CCCCCCCCC(CCCCCC)C(=O)OCCN(CCOC(=O)C(CCCCCC)CCCCCCCC)C(=O)CNCCO (centres unmarked) , can you help?
Response: 99.5

Query: Looking for the measured Encapsulation Efficiency % of CCCCCCCCC(CC)C(=O)OCCN(CCOC(=O)C(CC)CCCCCCCC)C(=O)C(C)N (centres unmarked) , can you help?
Response: 99.7

Origin of measurements: patent US20250268826A1
